I'd be grateful if you could share measured kon for these entries.
target_of_assay: T1, IL-12 p40 C177F variant (human, UniProt P29460 23-328)
T1 sequence: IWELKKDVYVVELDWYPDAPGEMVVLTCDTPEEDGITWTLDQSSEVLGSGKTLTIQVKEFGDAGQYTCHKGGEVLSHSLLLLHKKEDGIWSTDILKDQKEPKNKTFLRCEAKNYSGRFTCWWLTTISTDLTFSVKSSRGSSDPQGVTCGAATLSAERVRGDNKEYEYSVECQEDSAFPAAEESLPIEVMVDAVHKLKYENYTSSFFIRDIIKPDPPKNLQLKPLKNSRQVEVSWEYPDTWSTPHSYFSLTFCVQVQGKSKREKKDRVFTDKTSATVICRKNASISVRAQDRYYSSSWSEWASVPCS
test_protocol: BLI (Octet), p35 C74 variant against p40 C177F
Include the unit right after the number.

Record excerpt, results attached:
INSERT INTO results (binder, readout_value) VALUES
  ('IL-12 p35 C74W variant (other) RNLPVATPDPGMFPCLHHSQNLLRAVSNMLQKARQTLEFYPCTSEEIDHEDITKDKTSTVEACLPLELTKNESWLNSRETSFITNGSCLASRKTSFMMALCLSSIYEDLKMYQVEFKTMNAKLLMDPKRQIFLDQNMLAVIDELMQALNFNSETVPQKSSLEEPDFYKTKIKLCILLHAFRIRAVTIDRVMSYLNAS', '11500 M⁻¹ s⁻¹'),
  ('IL-12 p35 C74K variant (other) RNLPVATPDPGMFPCLHHSQNLLRAVSNMLQKARQTLEFYPCTSEEIDHEDITKDKTSTVEACLPLELTKNESKLNSRETSFITNGSCLASRKTSFMMALCLSSIYEDLKMYQVEFKTMNAKLLMDPKRQIFLDQNMLAVIDELMQALNFNSETVPQKSSLEEPDFYKTKIKLCILLHAFRIRAVTIDRVMSYLNAS', '16000 M⁻¹ s⁻¹'),
  ('IL-12 p35 C74Y variant (other) RNLPVATPDPGMFPCLHHSQNLLRAVSNMLQKARQTLEFYPCTSEEIDHEDITKDKTSTVEACLPLELTKNESYLNSRETSFITNGSCLASRKTSFMMALCLSSIYEDLKMYQVEFKTMNAKLLMDPKRQIFLDQNMLAVIDELMQALNFNSETVPQKSSLEEPDFYKTKIKLCILLHAFRIRAVTIDRVMSYLNAS', '12500 M⁻¹ s⁻¹');

Pending binder:
Lab note: measured kon of IL-12 p35 C74D variant (other) RNLPVATPDPGMFPCLHHSQNLLRAVSNMLQKARQTLEFYPCTSEEIDHEDITKDKTSTVEACLPLELTKNESDLNSRETSFITNGSCLASRKTSFMMALCLSSIYEDLKMYQVEFKTMNAKLLMDPKRQIFLDQNMLAVIDELMQALNFNSETVPQKSSLEEPDFYKTKIKLCILLHAFRIRAVTIDRVMSYLNAS was 11900 M⁻¹ s⁻¹
